test system: Plasmodium falciparum strain 3D7A; test: In vitro screening protocol II, [3H] hypoxanthine incorporation IC50 assay, 3D7A; format: cell-based; conditions: P. falciparum 3D7A
measured-quantity: IC50 3D7A

{"compound": "CCC1OC(=O)C(C)C(OC2CC(C)(OC)C(O)C(C)O2)C(C)C(OC2OC(C)CC(N(C)C)C2O)C(C)(O)CC(C)CN(CCCNC(=O)CCC(=O)c2ccccc2)C(C)C(O)C1(C)O.O=CO (stereo not shown) [Example 65]", "experimental-target": "Plasmodium falciparum strain 3D7A", "result": "G (3500 < X ≦ 5000)"}
{"compound": "CC(=O)O.CC(=O)O.CCC1OC(=O)C(C)C(OC2CC(C)(OC)C(O)C(C)O2)C(C)C(OC2OC(C)CC(N(C)C)C2O)C(C)(O)CC(C)CN(CCCNCc2ccnc3ccccc23)C(C)C(O)C1(C)O (stereo not shown) [Example 78]", "experimental-target": "Plasmodium falciparum strain 3D7A", "result": "C (200 < X ≦ 1000)"}
{"compound": "CCC1OC(=O)C(C)C(OC2CC(C)(OC)C(O)C(C)O2)C(C)C(OC2OC(C)CC(N(C)C)C2O)C(C)(O)CC(C)CN(CCCNC(=O)Cc2ccccc2F)C(C)C(O)C1(C)O.O=CO (stereo not shown) [Example 69]", "experimental-target": "Plasmodium falciparum strain 3D7A", "result": "G (3500 < X ≦ 5000)"}
{"compound": "CCC1OC(=O)C(C)C(OC2CC(C)(OC)C(O)C(C)O2)C(C)C(OC2OC(C)CC(N(C)C)C2O)C(C)(O)CC(C)CN(CCCNC(=O)Cc2cccc(Cl)c2)C(C)C(O)C1(C)O.O=CO (stereo not shown) [Example 62]", "experimental-target": "Plasmodium falciparum strain 3D7A", "result": "C (200 < X ≦ 1000)"}
{"compound": "CCC1OC(=O)C(C)C(OC2CC(C)(OC)C(O)C(C)O2)C(C)C(OC2OC(C)CC(N(C)C)C2O)C(C)(O)CC(C)CN(CCCNC(=O)c2cc(F)c(F)c(OC)c2F)C(C)C(O)C1(C)O.O=CO (stereo not shown) [Example 59]", "experimental-target": "Plasmodium falciparum strain 3D7A", "result": "D (1000 < X ≦ 2500)"}
{"compound": "CC(=O)O.CC(=O)O.CC[C@H]1OC(=O)[C@H](C)[C@@H](O[C@H]2C[C@@](C)(OC)[C@@H](O)[C@H](C)O2)[C@H](C)[C@@H](O[C@@H]2O[C@H](C)C[C@H](N(C)C)[C@H]2O)[C@](C)(O)C[C@@H](C)CN(CCCNC(=O)CCc2ccccc2)[C@H](C)[C@@H](O)[C@]1(C)O [Example 47]", "experimental-target": "Plasmodium falciparum strain 3D7A", "result": "D (1000 < X ≦ 2500)"}

Read the next record carefully.
[Q] Bench note: what IC50 3D7A did CC(=O)O.CC(=O)O.CC(=O)O.CCC1OC(=O)C(C)C(O)C(C)C(OC2OC(C)CC(N(C)C)C2O)C(C)(O)CC(C)CN(CCCNc2ccnc3cc(Cl)ccc23)C(C)C(O)C1(C)O (stereo not shown) [Example 79] show?
[A] A (X ≦ 100)

Data credit: patent US20090105301A1
